- target.entity: T1, V-Set And Immunoglobulin Domain Containing 4 (VSIG4) (human, UniProt Q9Y279 20-283, limits assumed)
- T1 construct: also called CRIg; Z39Ig
- T1 sequence (looked up): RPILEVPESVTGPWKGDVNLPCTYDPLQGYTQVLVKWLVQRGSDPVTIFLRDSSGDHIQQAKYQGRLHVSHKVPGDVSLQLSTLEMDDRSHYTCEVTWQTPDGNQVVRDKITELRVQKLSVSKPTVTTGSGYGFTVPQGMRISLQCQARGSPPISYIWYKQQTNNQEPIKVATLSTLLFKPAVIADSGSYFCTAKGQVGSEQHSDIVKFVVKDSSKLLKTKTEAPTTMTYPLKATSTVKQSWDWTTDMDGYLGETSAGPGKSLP
- procedure.text: kinetic affinity measurement; method not stated
measurement.kind: kon (M⁻¹ s⁻¹)

{"binder": "A1.3 antibody (EU103_T01.01S) (antibody, V domains shown, Generated from A1) VH: QVTLVESGPTLVKPGQTLTLTCTFSGISLTTSGMGVGWIRQPPGKALEWLADIFWDDNKYYNPSLKGRLTITKDTSKNQVYLTMTNMDPVDTATYYCVRVYYKNDGYFDVWGKGTTVTVSS VL: DIVLTQSPLSLPVTLGQPASISCRASKSVTTSGYSFMHWYQQRPGQSPRLLIYLASNLEPGVPDRFSGSGSGTDFTLKISRVEAEDVGVYYCQQSGELPYTFGQGTKLEIK", "recorded.result": 402000}
